Test system: inflammation induced in the ear by picryl chloride application
Experiment: Picryl chloride-induced ear swelling
Assay type: in vivo, BALB/C mice
Details: 80 μg IP; 3 h after picryl chloride
Non-standard residues stand in square brackets, D forms with d.
test.readout: % Inhibition 3 h (%)
Numbers only, in %.

Please review the following examples before continuing.
Ac-[D-Val^13]α-MSH(11-13)-NH2 (Ac-Lys-Pro-[dV]-NH2; SMILES CC(=O)N[C@@H](CCCCN)C(=O)N1CCC[C@H]1C(=O)N[C@@H](C(N)=O)C(C)C) [Ac-[D-Pro^13]α-MSH(11-13)-NH2]; 41
Ac-Lys-Pro-Val-NH2 [α-MSH(11-13)]; 50
Ac-[D-Lys^11, D-Val^13]α-MSH(11-13)-NH2 (Ac-[dK]-Pro-[dV]-NH2; SMILES CC(=O)N[C@H](CCCCN)C(=O)N1CCC[C@H]1C(=O)N[C@@H](C(N)=O)C(C)C); 40
Ac-[D-Pro^12]α-MSH(11-13)-NH2 (Ac-Lys-[dP]-Val-NH2; SMILES CC(=O)N[C@@H](CCCCN)C(=O)N1CCC[C@@H]1C(=O)N[C@H](C(N)=O)C(C)C); 8

Please examine the following record next.
get_value(item= Ac-[D-Lys^11]α-MSH(11-13)-NH2 (Ac-[dK]-Pro-Val-NH2; SMILES CC(=O)N[C@H](CCCCN)C(=O)N1CCC[C@H]1C(=O)N[C@H](C(N)=O)C(C)C) , readout=% Inhibition 3 h) returns 34

###

Exercise: for every item that follows, state its recorded % Inhibition 3 h.
Test system: inflammation induced in the ear by picryl chloride application
Assay: Picryl chloride-induced ear swelling
Type: in vivo, BALB/C mice
Settings: 40 μg IP; 3 h after picryl chloride
Non-standard residues stand in square brackets, D forms with d.
Numbers only, in %.

Please review the following examples before continuing.
Ac-[D-Val^13]α-MSH(11-13)-NH2 (Ac-Lys-Pro-[dV]-NH2; SMILES CC(=O)N[C@@H](CCCCN)C(=O)N1CCC[C@H]1C(=O)N[C@@H](C(N)=O)C(C)C) [Ac-[D-Pro^13]α-MSH(11-13)-NH2]; 39
Ac-[D-Pro^12]α-MSH(11-13)-NH2 (Ac-Lys-[dP]-Val-NH2; SMILES CC(=O)N[C@@H](CCCCN)C(=O)N1CCC[C@@H]1C(=O)N[C@H](C(N)=O)C(C)C); 10
Ac-Lys-Pro-Val-NH2 [α-MSH(11-13)]; 33

For every item in the list below, what is its measured % Inhibition 3 h?
1. Ac-[D-Lys^11, D-Val^13]α-MSH(11-13)-NH2 (Ac-[dK]-Pro-[dV]-NH2; SMILES CC(=O)N[C@H](CCCCN)C(=O)N1CCC[C@H]1C(=O)N[C@@H](C(N)=O)C(C)C)
2. Ac-[D-Lys^11]α-MSH(11-13)-NH2 (Ac-[dK]-Pro-Val-NH2; SMILES CC(=O)N[C@H](CCCCN)C(=O)N1CCC[C@H]1C(=O)N[C@H](C(N)=O)C(C)C)

a:
1: 42; 2: 35

###

Exercise: for every item that follows, state its recorded % Inhibition 6 h.
Tested on: inflammation induced in the ear by picryl chloride application
Assay: Picryl chloride-induced ear swelling
Assay type: in vivo, BALB/C mice
Conditions: 80 μg IP; 6 h after picryl chloride
Procedure: Hiltz, M. E., Catania, A., Lipton, J. M., Anti-Inflammatory Activity of aα-MSH (11-13) Analogs: Influence of Alteration in Stereochemistry, 12 Peptides 767 (1981). […] In the experiments each animal was anesthetized with 1 mg of pentobarbital sodium solution ([…], Nembutal, Abbott Laboratories, Abbott park, Ill.). Baseline ear thickness was measured for both ears with a spring-loaded micrometer (Swiss Precision Instruments, Los Angeles, Calif.). […]
Non-standard residues stand in square brackets, D forms with d.
Numbers only, in %.

Please review the following examples before continuing.
Ac-[D-Lys^11]α-MSH(11-13)-NH2 (Ac-[dK]-Pro-Val-NH2; SMILES CC(=O)N[C@H](CCCCN)C(=O)N1CCC[C@H]1C(=O)N[C@H](C(N)=O)C(C)C); 29
Ac-[D-Pro^12]α-MSH(11-13)-NH2 (Ac-Lys-[dP]-Val-NH2; SMILES CC(=O)N[C@@H](CCCCN)C(=O)N1CCC[C@@H]1C(=O)N[C@H](C(N)=O)C(C)C); 6
Ac-[D-Val^13]α-MSH(11-13)-NH2 (Ac-Lys-Pro-[dV]-NH2; SMILES CC(=O)N[C@@H](CCCCN)C(=O)N1CCC[C@H]1C(=O)N[C@@H](C(N)=O)C(C)C) [Ac-[D-Pro^13]α-MSH(11-13)-NH2]; 29
Ac-[D-Lys^11, D-Val^13]α-MSH(11-13)-NH2 (Ac-[dK]-Pro-[dV]-NH2; SMILES CC(=O)N[C@H](CCCCN)C(=O)N1CCC[C@H]1C(=O)N[C@@H](C(N)=O)C(C)C); 44

Please examine the following record next.
get_value(item= Ac-Lys-Pro-Val-NH2 [α-MSH(11-13)] , readout=% Inhibition 6 h) returns 42
